Entries and their solubility at 50 µM
methodNotes: Solubility and aggregation in PBS buffer by NMR (SPAM filter, 1H 1D and WaterLOGSY)
Type: physicochemical
conditionParameters: PBS buffer, aqueous buffer, kinetic from dmso stock; theoretical concentration 50 μM; PBS pH 7.5, 1 μM ZnCl2, 1 mM DTT, 10% D2O, 1% DMSO-d6
experimentalReadout: solubility at 50 µM

Cc1ns/c(=N\C(=N\c2ccccc2)c2ccccc2)n1Cc1ccc(C(=O)O)cc1 = 50 µM
Cc1ns/c(=N\c2ccccn2)n1Cc1ccccc1 = 40 µM

----------
methodNotes: Solubility and aggregation in PBS buffer by NMR (SPAM filter, 1H 1D and WaterLOGSY)
Format: physicochemical
conditionParameters: PBS buffer, aqueous buffer, kinetic from dmso stock; theoretical concentration 20 μM; PBS pH 7.5, 1 μM ZnCl2, 1 mM DTT, 10% D2O, 1% DMSO-d6; read-out: solubility in PBS buffer by NMR, 20 μM
Entries and their solubility
experimentalReadout: solubility

Cc1ns/c(=N\C(=N\c2ccccc2)c2ccccc2)n1Cc1ccccc1 [inh-2, reference compound] = < 5 µM
Cc1ns/c(=N\C(=N\c2ccccc2)c2ccccc2)n1Cc1cccc(O)c1 [Compound 17] = < 5 µM
Cc1ns/c(=N\C(=N\c2ccccc2)c2ccncc2)n1Cc1ccccc1 [Compound 34] = 10 µM
COc1cccc(Cn2c(C)ns/c2=N\C(=N\c2ccccc2)c2ccccc2)c1 [Compound 16] = < 5 µM
Cc1ns/c(=N\C(=N\c2ccccc2)c2ccccc2)n1-c1ccccc1 [analog-1, reference compound] = < 5 µM
Cc1ns/c(=N\C(=N\c2ccccc2)c2ccccc2)n1Cc1ccccc1N [Compound 29] = < 5 µM

----------
methodNotes: Solubility and aggregation in PBS buffer by NMR (SPAM filter, 1H 1D and WaterLOGSY)
Format: physicochemical
conditionParameters: PBS buffer, aqueous buffer, kinetic from dmso stock; theoretical concentration 100 μM; PBS pH 7.5, 1 μM ZnCl2, 1 mM DTT, 10% D2O, 1% DMSO-d6
Entries and their solubility at 100 µM
experimentalReadout: solubility at 100 µM

Cc1ns/c(=N\c2ccccn2)n1Cc1ccccc1 [Compound 42] = 5 µM
Cc1ns/c(=N\C(=N\c2ccccc2)c2ccccc2)n1Cc1ccc(C(=O)O)cc1 [Compound 12] = 100 µM

----------
methodNotes: Solubility and aggregation in PBS buffer by NMR (SPAM filter, 1H 1D and WaterLOGSY)
Type: physicochemical
conditionParameters: PBS buffer, aqueous buffer, kinetic from dmso stock; theoretical concentration 20 μM; PBS pH 7.5, 1 μM ZnCl2, 1 mM DTT, 10% D2O, 1% DMSO-d6
Entries and their solubility at 20 µM
experimentalReadout: solubility at 20 µM (µM)

Cc1ns/c(=N\C(=N\c2ccccc2)c2ccccc2)n1Cc1ccc(C(=O)O)cc1 [Compound 12] = 20
Cc1ns/c(=N\c2ccccn2)n1Cc1ccccc1 [Compound 42] = 20
Cc1ns/c(=N\C(=N\c2ccncc2)c2ccccc2)n1Cc1ccccc1 [Compound 40] = 20

----------
testedSystem: F508del-CFTR in CFBE41o– cells (Homo sapiens, UniProt Q99942)
Sequence (Q99942 2-180): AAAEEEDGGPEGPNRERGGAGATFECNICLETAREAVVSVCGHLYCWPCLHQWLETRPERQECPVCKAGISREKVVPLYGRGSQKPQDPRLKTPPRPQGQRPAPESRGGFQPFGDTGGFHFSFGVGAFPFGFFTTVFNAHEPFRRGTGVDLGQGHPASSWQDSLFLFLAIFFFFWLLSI
Sequence (P13569 with tags, fused parts or gaps DEL508-508 partner): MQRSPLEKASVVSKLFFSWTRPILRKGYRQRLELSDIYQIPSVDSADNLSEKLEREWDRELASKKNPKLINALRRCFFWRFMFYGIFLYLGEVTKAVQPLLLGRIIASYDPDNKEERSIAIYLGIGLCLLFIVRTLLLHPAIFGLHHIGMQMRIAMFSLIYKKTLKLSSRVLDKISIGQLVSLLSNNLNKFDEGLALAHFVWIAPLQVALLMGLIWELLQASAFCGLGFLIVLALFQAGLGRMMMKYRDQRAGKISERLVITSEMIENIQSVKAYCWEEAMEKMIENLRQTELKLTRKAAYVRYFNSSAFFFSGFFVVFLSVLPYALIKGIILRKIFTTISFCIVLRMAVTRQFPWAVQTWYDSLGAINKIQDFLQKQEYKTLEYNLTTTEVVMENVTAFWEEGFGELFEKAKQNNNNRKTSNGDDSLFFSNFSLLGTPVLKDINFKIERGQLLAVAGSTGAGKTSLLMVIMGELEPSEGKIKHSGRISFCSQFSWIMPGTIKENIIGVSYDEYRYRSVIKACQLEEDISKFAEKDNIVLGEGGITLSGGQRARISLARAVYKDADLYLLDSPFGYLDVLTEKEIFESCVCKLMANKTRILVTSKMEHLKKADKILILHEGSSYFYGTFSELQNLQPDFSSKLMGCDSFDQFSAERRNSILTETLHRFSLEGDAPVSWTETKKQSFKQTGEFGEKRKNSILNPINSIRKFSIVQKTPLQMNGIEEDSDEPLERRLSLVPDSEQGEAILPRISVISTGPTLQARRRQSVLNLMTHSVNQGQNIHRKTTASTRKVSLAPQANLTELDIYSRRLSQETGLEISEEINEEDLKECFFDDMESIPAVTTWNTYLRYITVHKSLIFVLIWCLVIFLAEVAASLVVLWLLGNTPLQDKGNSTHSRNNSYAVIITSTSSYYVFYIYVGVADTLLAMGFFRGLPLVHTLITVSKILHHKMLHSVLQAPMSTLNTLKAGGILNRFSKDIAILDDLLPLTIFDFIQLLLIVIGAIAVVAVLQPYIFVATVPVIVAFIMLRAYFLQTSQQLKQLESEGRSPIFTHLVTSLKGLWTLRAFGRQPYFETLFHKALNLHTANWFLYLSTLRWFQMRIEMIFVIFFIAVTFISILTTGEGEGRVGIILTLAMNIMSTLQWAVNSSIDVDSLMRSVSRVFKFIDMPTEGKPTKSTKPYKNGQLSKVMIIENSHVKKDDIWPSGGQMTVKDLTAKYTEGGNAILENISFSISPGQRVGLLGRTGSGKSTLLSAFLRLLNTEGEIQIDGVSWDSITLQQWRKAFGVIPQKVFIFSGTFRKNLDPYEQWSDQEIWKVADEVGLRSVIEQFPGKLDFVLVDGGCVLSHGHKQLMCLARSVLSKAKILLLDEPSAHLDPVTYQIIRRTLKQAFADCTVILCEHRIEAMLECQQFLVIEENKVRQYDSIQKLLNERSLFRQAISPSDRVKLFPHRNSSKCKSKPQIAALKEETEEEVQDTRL
methodNotes: HS-YFP microfluorimetric assay of F508del-CFTR rescue (corrector activity)
Format: cell-based
conditionParameters: CFBE41o– cells co-expressing F508del-CFTR and HS-YFP, 24 h treatment, Figure 5
experimentalReadout: F508del-CFTR corrector activity compared with inh-2 (CFTR activity, primary screen)

Cc1ns/c(=N\C(=N\c2ccccc2)c2ccccc2)n1Cc1ccc(O)cc1 = reduced potency
COc1ccc(Cn2c(C)ns/c2=N\C(=N\c2ccccc2)c2ccccc2)cc1 = reduced potency
Cc1ns/c(=N\C(=N\c2ccccc2)c2ccccc2)n1Cc1ccc(N)cc1 = reduced potency
